Hey, just so you know, these numbers are from PubChem BioAssay (NCI).

- Tested on: HCT-116 colon
- Protocol description: NCI tumour cell line growth inhibition, 48 h
Value type: GI50

- Smiles structure: "Cn1c(-c2nonc2N)nc2cnccc21"
  Test value: "> 25000 nM"
- Smiles structure: "NNC(=O)c1cnn(-c2ccnc3c(C(F)(F)F)cccc23)c1N"
  Test value: "> 100000 nM"
- Smiles structure: "O=C(Cc1ccc(/C=C/C(=O)c2ncc[nH]2)cc1)Nc1ccc(Cl)cc1"
  Test value: "848 nM"
- Smiles structure: "COc1ccccc1NC(=O)c1ccc(/C=C/C(=O)c2nccn2C)cc1"
  Test value: "408 nM"
- Smiles structure: "O=C1CSC(N2CCN(c3cccc(Cl)c3)CC2)=N1"
  Test value: "> 100000 nM"
- Smiles structure: "N#Cc1nc(-c2ccc(F)cc2)oc1S(=O)(=O)N1CCOCC1"
  Test value: "1280 nM"
- Smiles structure: "O=C1c2ccccc2C(=O)c2c1ccc1[nH]c(CCl)nc21"
  Test value: "1850 nM"

* * *

As shown below, each of these compounds has a reported GI50 value.
- System: OVCAR-4 ovarian
- Protocol description: NCI tumour cell line growth inhibition, 48 h
Value type: GI50

- Compound: "CC1=C(CCCOC(=O)NCCCl)C2=C(C)C3(CC3)[C@@](C)(O)C(=O)C2=C1"
  Test value: "2.7 µM"
- Compound: "CCN1CCN(c2nc(NCCNc3ccnc4cc(Cl)ccc34)c3ccccc3n2)CC1"
  Test value: "1.78 µM"
- Compound: "N#Cc1c(O)c2c(c(O)c1C#N)C(=O)c1ccccc1C2=O"
  Test value: "1.43 µM"
- Compound: "NS(=O)(=O)c1ccc(-n2nc(-c3ccc(Br)cc3)ccc2=O)cc1"
  Test value: "> 10 µM"
- Compound: "O=C(Cc1ccc(/C=C/C(=O)c2ncc[nH]2)cc1)Nc1ccc(Cl)cc1"
  Test value: "4.11 µM"
- Compound: "Fc1ccc(-c2nn(-c3ccccc3)cc2-c2nc3ccccc3o2)cc1"
  Test value: "9.12 µM"
- Compound: "COc1ccc(-n2cc(-c3ccc(OC)c(OC)c3)[nH]c2=S)cc1Cl"
  Test value: "> 100 µM"
- Compound: "S=C1NCCN1C1=Nc2ccccc2CO1"
  Test value: "> 100 µM"
- Compound: "Clc1ccc(Cc2nc3cc4ccccc4cc3[nH]2)cc1"
  Test value: "22.7 µM"
- Compound: "CCCCCCCCCCCCOC1C(CNCC2OC3OC(C)(C)OC3C2NC(=O)Nc2ccc(C(=O)OCC)cc2)OC2OC(C)(C)OC21 (stereo not given)"
  Test value: "1.87 µM"

* * *

- Test system: A498 renal
- Protocol description: NCI tumour cell line growth inhibition, 48 h
Where a SMILES comes first, the peptide text is derived from it. [ ]: non-standard residue; d: D form. The star is where a group is joined. Bn2Val = CC(C)[C@@H](C(=O)*)N(Cc1ccccc1)Cc1ccccc1; NH(3,4-diMeO-benzyl) = COc1ccc(CN*)cc1OC; NMeV = CN[C@H](C(=O)O)C(C)C; dNMeA = CN[C@H](C)C(=O)O

- Compound: "C/C(=N\\NC(N)=S)c1ccc(C)cc1C"
  TGI: "> 100 µM"
- Compound: "O=C1c2ccccc2C(=O)c2c1ccc1[nH]c(CCl)nc21"
  TGI: "7.06 µM"
- Compound: "CC(=O)/C=C/c1cccc(N=S)c1"
  TGI: "78.7 µM"
- Compound: "Cc1ccc(C(=O)Nc2ccc(CP(=O)(O)O)cc2)cc1NC(=O)c1cccc(NC(=O)Nc2cccc(C(=O)Nc3cc(C(=O)Nc4ccc(CP(=O)(O)O)cc4)ccc3C)c2)c1"
  TGI: "> 100 µM"
- Compound: "Cc1nc2ccc([N+](=O)[O-])cc2c(=O)n1C(=S)Nc1cccc(Cl)c1"
  TGI: "45.9 µM"
- Compound: "C[Si](C)(C)c1ccc(CC2(Cc3ccc([Si](C)(C)C)cc3)CCNC2)cc1"
  TGI: "2.91 µM"
- Compound: "C(=Nc1ccc(-c2nc3ccccc3s2)cc1)c1ccco1"
  TGI: "99.3 µM"
- Compound: "COc1ccc(CNC(=O)[C@@H](C)N(C)C(=O)[C@@H]2CCCN2C(=O)[C@H](C(C)C)N(C)C(=O)[C@@H](NC(=O)[C@H](C(C)C)N(Cc2ccccc2)Cc2ccccc2)C(C)C)cc1OC (Bn2Val-V[NMeV]P[dNMeA]-{NH(3,4-diMeO-benzyl)})"
  TGI: "23.7 µM"
- Compound: "C1CN2N3CCCC23C1 (configuration not stated)"
  TGI: "> 100 µM"
- Compound: "Cc1c(N2C(=O)/C(=C\\c3ccccc3O)N=C2c2ccccc2)c(=O)n(-c2ccccc2)n1C"
  TGI: "> 100 µM"
- Compound: "CO/N=C1/c2sccc2[C@H](NC(=O)CNC(=O)OC(C)(C)C)[C@@H]1O"
  TGI: "> 100 µM"
- Compound: "O=C1CCC(NC(=O)c2ccccc2)C(=O)N1 (configuration not stated)"
  TGI: "> 100 µM"
- Compound: "Cc1cccc(C[C@@]2(SCc3ccccc3)C(C)(C)[C@@H]3CC[C@@]2(C)C3)n1"
  TGI: "28.6 µM"
- Compound: "COC1C=CC23c4cc5c(cc4C(O)OC2CN(C)C3C1)OCO5 (configuration not stated)"
  TGI: "9.89 µM"
- Compound: "CC1=C[C@@H]2Cc3occc3C(C)(C)[C@@H]2CC1"
  TGI: "49.6 µM"
- Compound: "O=S(=O)(O)C(O)/C=C/c1ccccc1 (configuration not stated)"
  TGI: "> 100 µM"
- Compound: "CCn1c(=O)c2c3cc(O)ccc3oc2c2ccc(O)cc21"
  TGI: "55.5 µM"
- Compound: "CCN1CCN(c2nc(NCCNc3ccnc4cc(Cl)ccc34)c3ccccc3n2)CC1"
  TGI: "3.35 µM"
- Compound: "COC(=O)CCCC(=O)C(=Nc1c(Cl)cccc1Cl)NNc1ccc(Cl)cc1"
  TGI: "88.6 µM"
- Compound: "Clc1ccc(Cc2nc3cc4ccccc4cc3[nH]2)cc1"
  TGI: "> 100 µM"
- Compound: "O=C1OC[C@@H]2Cc3c([nH]c4ccccc34)[C@@H](c3ccc(O)cc3)N12"
  TGI: "> 81 µM"
- Compound: "CCCNC(=O)OCc1c(COC(=O)NCCC)c(-c2ccc(Cl)c(Cl)c2)n2c1CCC2"
  TGI: "3.24 µM"
- Compound: "OC(c1cccc(C(F)(F)F)c1)c1cnccc1NC1CCCCCC1 (configuration not stated)"
  TGI: "15.9 µM"
- Compound: "O=C(O)CNC(=O)c1ccc([As](=O)(O)O)cc1"
  TGI: "> 100 µM"
- Compound: "O=C(/C=C/c1cccs1)c1ccc(Cl)cc1"
  TGI: "> 100 µM"
- Compound: "CCOC(=O)c1cnc2[nH]ccn2c1=O"
  TGI: "> 10 µM"
- Compound: "CC1=C(CCCOC(=O)NCCCl)C2=C(C)C3(CC3)[C@@](C)(O)C(=O)C2=C1"
  TGI: "3.95 µM"
- Compound: "Cc1cccc(C(C)(C)C)c1NC(=O)C(=O)Cc1nc2ccccc2s1"
  TGI: "> 100 µM"
- Compound: "O=C(O/N=C1/CCC/C1=C\\c1ccccc1)c1ccc([N+](=O)[O-])cc1"
  TGI: "> 100 µM"
- Compound: "CC1=CCCC(OC(N)=O)C1 (configuration not stated)"
  TGI: "> 100 µM"
- Compound: "CCOC(=O)CCCO"
  TGI: "> 100 µM"
- Compound: "Cc1ccc(C2=Nc3c(c(C)nn3-c3ccccc3)N=C(C(=O)O)C2)cc1"
  TGI: "> 10 µM"

* * *

- Tested on: HT29 colon
- Protocol description: NCI tumour cell line growth inhibition, 48 h

- Compound: "CC(=O)c1ccc(N(/C=C/C(=O)C(F)(F)F)CC(=O)c2ccc(Cl)c(Cl)c2)cc1"
  Target or system: "HT29 colon"
  TGI: "> 100 µM"
- Compound: "COc1cccc(C2c3cc4c(cc3OC(N3CCCC3)C2C)OCO4)c1OC (stereo unspecified)"
  Target or system: "HT29 colon"
  TGI: "11.3 µM"
- Compound: "CC(=O)CC(=O)c1cc2c(=O)oc(C)cc2oc1=O"
  Target or system: "HT29 colon"
  TGI: "> 37.5 µM"
- Compound: "c1ccc2c(c1)CCCN1CCc3ccccc3C21 (stereo unspecified)"
  Target or system: "HT29 colon"
  TGI: "> 100 µM"
- Compound: "O=C1c2ccccc2-c2c1c1cc3c(cc1c(=O)n2CCCCl)OCO3"
  Target or system: "HT29 colon"
  TGI: "> 100 µM"
- Compound: "O=C1NC(=S)NC(=O)C1C(c1ccccc1[N+](=O)[O-])C1C(=O)NC(=S)NC1=O"
  Target or system: "HT29 colon"
  TGI: "> 100 µM"
